Below, each entry is listed with its recorded TGI.
# Test system: M14 melanoma
# experiment: NCI tumour cell line growth inhibition, 48 h
Note: unit µM is implicit; provide only the numeric part.

COc1ccc2[nH]cc(CCNC(=O)[C@H](Cc3ccccc3)NC(=O)[C@@H](NCC(F)(F)F)C(C)C)c2c1 : 34.1
Cn1c2ccccc2n2c(N=O)c(-c3ccccc3)nc12 : 62.2
C=C1C(=O)O[C@H]2[C@H]1CC/C(COC(=O)NCc1ccc(Cn3c(=O)sn(CCCl)c3=O)cc1)=C\CC[C@@]1(C)O[C@@H]21 : 3.65
O=C(ON=C1c2ccccc2C(Br)C(Br)c2ccccc21)c1cc([N+](=O)[O-])cc([N+](=O)[O-])c1 (configuration not stated) : 33.6
Cc1cc2c(cc1-c1cc3c(cc1C)C(C(C)C)=C(O)C(=O)/C3=C\Nc1c3ccccc3nc3ccccc13)/C(=C/Nc1c3ccccc3nc3ccccc13)C(=O)C(O)=C2C(C)C : 12.6
COc1cc(OC(=O)c2ccccc2)cc2c1C(=O)C=CC2=O : 32.5

Could you now look at the following molecule, please?
Give recorded TGI. `c1ccc2[nH]c(-c3ccc(-c4nccc5c4[nH]c4ccccc45)cc3)nc2c1`
3.57

----------
# System: RXF 393 renal
# experiment: NCI tumour cell line growth inhibition, 48 h
*1 amine or outer side, *2 acyl side, *3 side chain or, on linkers, in order; H or OH if unused. Where a SMILES comes first, the peptide text is derived from it. [ ]: non-standard residue; d: D form. The star is where a group is joined. X31 = CC(=O)N(C)SCC(N[*:1])C(=O)[*:2]; Cbz = O=C(OCc1ccccc1)*; Bn = c1ccc(C*)cc1; For = O=C*
measure: TGI

Worked set:
CC(C)Cn1cnc2c(NCC(C)O)nc3ccccc3c21 (stereo unspecified) : > 100 µM
CCOC(=O)c1cccn1S(=O)(=O)c1cc(Cl)ccc1NC(=O)CC : > 100 µM
CC(=O)N(C)SCC(NC(=O)C(Cc1ccccc1)NC(=O)OCc1ccccc1)C(=O)NC(Cc1ccccc1)C(=O)NC(Cc1cn(C=O)c2ccccc12)C(=O)NC(CCCCNC(=O)OCc1ccccc1)C(=O)NC(C(=O)NC(CSN(C)C(C)=O)C(=O)NC(C(N)=O)C(C)OCc1ccccc1)C(C)OCc1ccccc1 (stereo unspecified) (Cbz-F[X31]FW(For)K(Cbz)T(Bn)[X31]T(Bn)-NH2; configuration not given here) : 41.9 µM
NC(N)=N/N=C/c1c(-c2ccc(Cl)cc2)nc2sccn12 : 2.95 µM
Cc1cc2c(cc1-c1cc3c(cc1C)C(C(C)C)=C(O)C(=O)/C3=C\Nc1c3ccccc3nc3ccccc13)/C(=C/Nc1c3ccccc3nc3ccccc13)C(=O)C(O)=C2C(C)C : 20.1 µM

Give recorded TGI. CCCCCCCCCCCCCCCCCCNc1ccn(C2OC(COP(=O)(O)OCC3OC(n4cc(F)c(=O)[nH]c4=O)CC3O)C(O)C2O)c(=O)n1 (stereo unspecified)
35.6 µM

Give recorded TGI. `COc1ccc(/C(COc2ccc3c(=O)cc(-c4ccccc4)oc3c2)=N\O)cc1`
> 50 µM

Give recorded TGI. `O=C(CSc1nnc(-c2ccc(N=Cc3ccc(Cl)cc3)cc2)o1)Nc1ccccc1[N+](=O)[O-]`
> 100 µM

Give recorded TGI. COC1CC(OS(=O)(=O)c2ccc([N+](=O)[O-])cc2)C(OC(=O)c2ccccc2)C(C)O1 (stereo unspecified)
> 100 µM

Give recorded TGI. CCC(C)(CC(C)(C)C(=O)NCC(=O)NC(Cc1ccccc1)C(=O)NC(Cc1ccccc1)C(=O)NCC(=O)NC1CC(OC2CC(O)(C(=O)CO)Cc3c(O)c4c(c(O)c32)C(=O)c2c(OC)cccc2C4=O)OC(C)C1O)C(=O)NCC(C)O (stereo unspecified)
> 150 µg/mL

Give recorded TGI. Clc1ccc(C2SCc3nc4ccccc4n32)c(Cl)c1 (stereo unspecified)
29.6 µM

Give recorded TGI. `CP1(=O)CCCCC1`
> 100 µM

Give recorded TGI. `C(#Cc1ccccc1C#Cc1cccs1)c1cccs1`
> 100 µM

Give recorded TGI. `Cc1c(C(N)=O)sc2c1C(=O)N(Cc1ccccc1)C1=NN=C(c3ccc(Cl)cc3)CN12`
7.71 µM

Give recorded TGI. `CN[C@@H](C)C(=O)N[C@H](C(=O)N1CCC[C@H]1C(=O)Nc1snnc1-c1ccccc1)C1CCCCC1`
40.1 µM

Give recorded TGI. OC1(c2cccs2)c2cccc(Cl)c2C(O)(c2cccs2)c2c(Cl)cccc21 (stereo unspecified)
> 100 µM

Give recorded TGI. CNc1ncnc2c1ncn2C1C=CC(COS(N)(=O)=O)C1 (stereo unspecified)
> 100 µM

----------
# Test system: EKVX NSCLC
# experiment: NCI tumour cell line growth inhibition, 48 h
Below, each entry is listed with its recorded TGI.

Worked set:
COc1cc2c(c(O)c1OC)-c1c(cc(OC)c(OC)c1OC)CC(C)C(C)C2 (stereo not given) : > 100 µM
COc1ccc2c3c1O[C@]1(C)C34CCN(C)C(C2)C42C=C[C@@]1(OC)c1c(O)ccc(O)c12 : > 100 µM
CC/C=C1/C(=O)C=C[C@@H]1C/C=C\CCCC(=O)OC : 16.8 µM

Give recorded TGI. `COc1cc2c(oc(=O)c3c4oc([Si](C)(C)C)cc4cc(OC)c23)c2cccc(OCc3ccccc3)c12`
> 100 µM

Give recorded TGI. `COc1cc(OC(=O)c2ccccc2)cc2c1C(=O)C=CC2=O`
30.2 µM

Give recorded TGI. O=C1/C(=C/c2ccccc2O)N=C(c2ccccc2)N1C1Nc2cc3c(cc2S1)NC(N1C(=O)/C(=C/c2ccccc2O)N=C1c1ccccc1)S3 (stereo not given)
> 100 µM

Give recorded TGI. CC1C2(C)OC(=N)C(C#N)(C(c3ccccc3)O2)C1(C#N)C#N (stereo not given)
56.6 µM

Give recorded TGI. `CNC1=C(C)C(=O)C(=O)C([C@H](C)CCC=C(C)C)=C1O`
> 100 µM

Give recorded TGI. `OC(c1ccccc1)(c1ccccc1)c1ccncc1`
> 100 µM

Give recorded TGI. `CCOC(=O)N1CCN(C=S)CC1`
> 100 µM

----------
# Tested on: NCI-H23 lung
# experiment: NCI tumour cell line growth inhibition, 48 h
Label TRUE when TGI is at or above 40 µM; otherwise label FALSE.

Check out these entries, answers already filled in.
CC(C)Cn1cnc2c(NCC(C)O)nc3ccccc3c21 (stereo not given) : TRUE
O=C(O)c1nc2cc(C(F)(F)F)ccc2nc1Nc1ccc(F)cc1 : FALSE
CN(CCCn1c2c(c3ccccc3c1=O)C(=O)c1ccccc1-2)CCCn1c2c(c3ccccc3c1=O)C(=O)c1ccccc1-2 : FALSE
COc1cc([N+](=O)[O-])c(OC)cc1-c1nc2sc(Cl)cn2c1/C(N)=N/C(=N)N : FALSE
C[N+](C)(C)CC(=O)N/N=C/c1oc(-c2c(O)ccc3ccccc23)c(-c2c(O)ccc3ccccc23)c1[N+](=O)[O-] : FALSE
Cc1ccc(S(=O)(=O)N/N=C/c2c(O)ccc3ccccc23)cc1 : TRUE

Could you please find out whether `C/C(CC(=O)Nc1ccc([N+](=O)[O-])cc1)=N\NC(N)=O` has TGI that meets 40 µM or exceeds it?
TRUE

Could you please find out whether `O=c1c2c(oc3ccccc13)-c1ccccc1OC2` has TGI that meets 40 µM or exceeds it?
TRUE

Could you please find out whether `COc1ccc2cc(C(=O)/C=C/c3ccc(Cl)cc3Cl)ccc2c1` has TGI that meets 40 µM or exceeds it?
TRUE

Could you please find out whether COC(=O)C1(C)CCC(c2ccc(C)cc2)=C(CC(=O)O)C1 (stereo not given) has TGI that meets 40 µM or exceeds it?
TRUE

Could you please find out whether `CCc1c2c([nH]c(=S)c1C#N)CCC2` has TGI that meets 40 µM or exceeds it?
TRUE

Could you please find out whether COC(=O)C(=O)C(C(=O)C(=O)Nc1ccc(F)cc1)c1nc2ccc([N+](=O)[O-])cc2[nH]c1=O (stereo not given) has TGI that meets 40 µM or exceeds it?
TRUE

Could you please find out whether C=C1CCC2C3(C)COC(c4ccc(N(C)C)cc4)OC3CCC2(C)C1C/C=C1/C(=O)OCC1O (stereo not given) has TGI that meets 40 µM or exceeds it?
FALSE

Could you please find out whether `c1ccc2[nH]c(-c3ccc(-c4nccc5c4[nH]c4ccccc45)cc3)nc2c1` has TGI that meets 40 µM or exceeds it?
FALSE

Could you please find out whether `Cc1c(C(N)=O)sc2c1C(=O)N(Cc1ccccc1)C1=NN=C(c3ccc(Cl)cc3)CN12` has TGI that meets 40 µM or exceeds it?
FALSE

Could you please find out whether `CN1CCc2[nH]c3ccccc3c2C1` has TGI that meets 40 µM or exceeds it?
TRUE

Could you please find out whether COc1ccc(C(=O)OC2C(OC3C(O)COC(O[C@H]4C[C@H]5[C@@H]6CC=C7C[C@@H](O)CC[C@]7(C)[C@H]6CC[C@]5(C)[C@H]4[C@H](C)C(=O)CCC(C)C)C3OC(N)=O)OCC(O)C2O)cc1 (stereo not given in full) has TGI that meets 40 µM or exceeds it?
FALSE

All figures here come from PubChem BioAssay (NCI).
